Hey, just so you know, these numbers are from patent US20170298395A1.

I'd appreciate it if you could supply Chemoheterotrophic β-galactosidase activity values for the items below.
test system: cbb promoter; assay type: cell-based, Ralstonia eutropha; conditions: Table 12, chemoheterotrophic (repressed) growth

query: Requested read-out: Chemoheterotrophic β-galactosidase activity. Entry: G125S/V265M (protein) MSSFLRALTLRQLQIFVTVARHASFVRAAEELHLTQPAVSMQVKQLESVVGMALFERVKGQLTLTEPGDRLLHHASRILGEVKDAEEGLQAVKDVEQGSITIGLISTSKYFAPKLLAGFTALHPSVDLRIAEGNRETLLRLLQDNAIDLALMGRPPRELDAVSEPIAAHPHVLVASPRHPLHDAKGFDLQELRHETFLLREPGSGTRTVAEYMFRDHLFTPAKVITLGSNETIKQAVMAGMGISLLSLHTLGLELRTGEIGLLDMAGTPIERIWHVAHMSSKRLSPASESCRAYLLEHTAEFLGREYGGLMPGRRVA
result: 53 nmol/min/mg of protein

query: // lookup Chemoheterotrophic β-galactosidase activity for E87K (protein) MSSFLRALTLRQLQIFVTVARHASFVRAAEELHLTQPAVSMQVKQLESVVGMALFERVKGQLTLTEPGDRLLHHASRILGEVKDAEKGLQAVKDVEQGSITIGLISTSKYFAPKLLAGFTALHPGVDLRIAEGNRETLLRLLQDNAIDLALMGRPPRELDAVSEPIAAHPHVLVASPRHPLHDAKGFDLQELRHETFLLREPGSGTRTVAEYMFRDHLFTPAKVITLGSNETIKQAVMAGMGISLLSLHTLGLELRTGEIGLLDVAGTPIERIWHVAHMSSKRLSPASESCRAYLLEHTAEFLGREYGGLMPGRRVA
result: 1597 nmol/min/mg of protein
